TESTED SYSTEM: Guanidinoacetate N-methyltransferase (Homo sapiens)
PROTOCOL TEXT: Confirmatory Screen for Target Class Profiling of Small Molecule Inhibitors of Methyltransferases (AID 1745852); further: on the % scale 0 is the no-effect control and ±100 the full control effect
CONDITIONS USED: MTase-Glo luminescence, SAH detection, recombinant enzyme; at 57.3 µM (top of the series) unless noted
We begin with a simple list: items and their reported activity change, negative = inhibition.
VALUE KIND: activity change, negative = inhibition (%)

{"TEST SMILES": "CC(C)(Sc1ccc(CCN(CCCCC2CCCCC2)C(=O)NC2CCCCC2)cc1)C(=O)O", "VALUE UNIT": "%", "NUMBER": 2.53}
{"TEST SMILES": "CNCc1ccc(-c2[nH]c3cc(F)cc4c3c2CCNC4=O)cc1", "VALUE UNIT": "%", "NUMBER": -1.39}
{"TEST SMILES": "COc1cc2c(cc1OC)CN(CCc1ccc(NC(=O)c3cccc4c(=O)c5cccc(OC)c5[nH]c34)cc1)CC2", "VALUE UNIT": "%", "NUMBER": -0.294}
{"TEST SMILES": "Nc1nccc(-c2ccc3noc(-c4ccc(Cl)cc4)c3c2)n1", "VALUE UNIT": "%", "NUMBER": 4.33}
{"TEST SMILES": "CCCCCCCc1ccc(CCc2cccc(O)c2C(=O)O)cc1", "VALUE UNIT": "%", "NUMBER": -1.62}

----------
Test system: WaGa
PROTOCOL TEXT: qHTS assay to identify novel small-molecules to repurpose for Merkel cell carcinoma treatment (AID 1296009); further: nearly all actives have a fitted effect of over 60% in size
CONDITIONS USED: MCC and control cell lines, CellTiter-Glo viability, 72 h; series mostly up to 46 µM
Inconclusive results are not listed. Activity calls are given as the source filed them. Calls come from the whole dose curve; as a rule, active = well fitted inhibition curve with a large enough effect; inconclusive = small, poorly fitted or top-dose-only effect; inactive = flat fitted curve, though single readings scatter.
Classes used: active, inactive

{"MOLECULE": "CCCc1nc2c(C)cc(-c3nc4ccccc4n3C)cc2n1Cc1ccc(-c2ccccc2C(=O)O)cc1", "CLASS ASSIGNMENT": "inactive"}
{"MOLECULE": "NC(=O)C1CCCc2c1[nH]c1ccc(Cl)cc21 (configuration not stated)", "CLASS ASSIGNMENT": "inactive"}
{"MOLECULE": "Cc1ccnc(NS(=O)(=O)c2ccc(NC(=O)Nc3ccc(S(=O)(=O)Nc4nccc(C)n4)cc3)cc2)n1", "CLASS ASSIGNMENT": "inactive"}
{"MOLECULE": "CC(C)(C)OC(=O)CN(Cc1ccc(Cl)cc1)Cc1ccc([N+](=O)[O-])s1", "CLASS ASSIGNMENT": "inactive"}
{"MOLECULE": "CS(=O)(=O)c1cccc(CNc2nc(Nc3ccc4c(c3)CCC(=O)N4)ncc2C(F)(F)F)c1", "CLASS ASSIGNMENT": "active"}
{"MOLECULE": "Cc1cc(SCc2sc(-c3ccc(C(F)(F)F)cc3)nc2C)ccc1OCC(=O)O", "CLASS ASSIGNMENT": "inactive"}
{"MOLECULE": "NC(=O)c1cnccn1", "CLASS ASSIGNMENT": "inactive"}
{"MOLECULE": "CCC(C)n1ncn(-c2ccc(N3CCN(c4ccc(OC[C@H]5CO[C@](Cn6cncn6)(c6ccc(Cl)cc6Cl)O5)cc4)CC3)cc2)c1=O (some centres not stated)", "CLASS ASSIGNMENT": "inactive"}
{"MOLECULE": "CCCCCCCc1ccc(CCc2cccc(O)c2C(=O)O)cc1", "CLASS ASSIGNMENT": "inactive"}
{"MOLECULE": "CC(=O)Oc1ccccc1C(=O)O", "CLASS ASSIGNMENT": "inactive"}
{"MOLECULE": "O=C(C=Cc1ccc(/C=C/C(=O)Nc2ccc(C3=NCCN3)cc2)cc1)Nc1ccc(C2=NCCN2)cc1", "CLASS ASSIGNMENT": "inactive"}
{"MOLECULE": "COc1ccc(CC2=NN3C([C@@H](CCc4ccccc4)[C@@H](C)O)=NC(C)C3C(=O)N2)cc1OC (some centres not stated)", "CLASS ASSIGNMENT": "inactive"}
